# Protocol Notes: Absorption test by oral administration in rats (plasma concentration)
# Assay type: in vivo
# Measurement Conditions: rat, rats (n=4), 10 mg/kg oral, 2 hrs, read-out: Concentration of the compound in plasma
Recorded Endpoint: concentration at 2 h
Phrase the answer as number then unit, nothing more needed.

Query: Look at this compound and give its reported concentration at 2 h. CCCC[C@H](NC(=O)C(Cc1cccc2ccccc12)CS(=O)(=O)CC)C(=O)N[C@@H](CC1CCCCC1)[C@@H](O)[C@H](O)CN1CCOCC1 (mixture of isomers)
Response: 85 ng/mL

###

# Target System: human plasma renin (Homo sapiens, UniProt P00797)
# Sequence (P00797 67-406): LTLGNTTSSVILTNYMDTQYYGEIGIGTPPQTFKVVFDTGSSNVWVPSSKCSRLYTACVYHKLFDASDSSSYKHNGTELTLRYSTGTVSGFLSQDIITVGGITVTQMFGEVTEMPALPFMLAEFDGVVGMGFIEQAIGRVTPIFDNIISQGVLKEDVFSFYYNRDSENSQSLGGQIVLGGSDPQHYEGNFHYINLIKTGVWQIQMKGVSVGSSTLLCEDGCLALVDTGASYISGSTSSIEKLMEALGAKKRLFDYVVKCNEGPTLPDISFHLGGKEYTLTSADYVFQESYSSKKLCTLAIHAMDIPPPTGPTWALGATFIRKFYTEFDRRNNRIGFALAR
# Protocol Notes: Renin inhibiting activities (human plasma, angiotensin I by radioimmunoassay)
# Measurement Conditions: pH7.4, 37° C., one hour
# Method: TEST EXAMPLE 1: Renin inhibiting activities To 156 μl of a 0.2M sodium phosphate buffer solution (pH7.4), 40 μl of a solution mixture of 34 mM 8-hydroxyquinoline and 100 mM disodium ethylenediamine tetraacetate, 4 μl of dimethyl sulfoxide or a dimethyl sulfoxide solution of an inhibitor and 200 μl of human plasma were added and reacted at 37° C. for one hour. […]
Recorded Endpoint: IC50 (nM)
Give your result in nM as a bare value.

{"columns": ["Compound", "Obs Value"],
 "data": [
  ["CCCC[C@H](NC(=O)[C@H](Cc1ccccc1)CS(=O)(=O)C1CCCC1)C(=O)N[C@@H](CC1CCCCC1)[C@@H](O)[C@@H](O)C[N+]1([O-])CCOCC1", 3],
  ["CCCC[C@H](NC(=O)C(CCCS(=O)(=O)CC)Cc1cccc2ccccc12)C(=O)N[C@@H](CC(C)C)[C@@H](O)CC(CC)C(=O)NCC(C)C (single isomer, unassigned)", 1.9],
  ["CCCC[C@H](NC(=O)[C@H](Cc1cccc2ccccc12)C[S+]([O-])c1ncccn1)C(=O)N[C@@H](CC1CCCCC1)[C@@H](O)[C@@H](O)CN1CCOCC1 (single isomer, unassigned)", 3.6]
]}

Query: Look at this compound and give its reported IC50. CCC(C[C@H](O)[C@H](CC(C)C)NC(=O)[C@H](Cc1c[nH]cn1)NC(=O)[C@H](Cc1cccc2cccnc12)CS(=O)(=O)CC)C(=O)NCC(C)C (some centres unmarked)
Response: 3.1

Query: Look at this compound and give its reported IC50. CCCC[C@H](NC(=O)[C@H](Cc1cccc2ccccc12)CS(=O)(=O)Cc1ccco1)C(=O)N[C@@H](CC1CCCCC1)[C@@H](O)[C@@H](O)CN1CCOCC1
Response: 2.3

Source: patent US5122523A
